target: Transient receptor potential cation channel subfamily V member 1 (Homo sapiens, UniProt Q8NER1); experiment: Antagonist activity at human TRPV1 assessed as inhibition of NADA-induced effect at 1 uM by FLIPR assay
Sequence (Q8NER1 whole entry): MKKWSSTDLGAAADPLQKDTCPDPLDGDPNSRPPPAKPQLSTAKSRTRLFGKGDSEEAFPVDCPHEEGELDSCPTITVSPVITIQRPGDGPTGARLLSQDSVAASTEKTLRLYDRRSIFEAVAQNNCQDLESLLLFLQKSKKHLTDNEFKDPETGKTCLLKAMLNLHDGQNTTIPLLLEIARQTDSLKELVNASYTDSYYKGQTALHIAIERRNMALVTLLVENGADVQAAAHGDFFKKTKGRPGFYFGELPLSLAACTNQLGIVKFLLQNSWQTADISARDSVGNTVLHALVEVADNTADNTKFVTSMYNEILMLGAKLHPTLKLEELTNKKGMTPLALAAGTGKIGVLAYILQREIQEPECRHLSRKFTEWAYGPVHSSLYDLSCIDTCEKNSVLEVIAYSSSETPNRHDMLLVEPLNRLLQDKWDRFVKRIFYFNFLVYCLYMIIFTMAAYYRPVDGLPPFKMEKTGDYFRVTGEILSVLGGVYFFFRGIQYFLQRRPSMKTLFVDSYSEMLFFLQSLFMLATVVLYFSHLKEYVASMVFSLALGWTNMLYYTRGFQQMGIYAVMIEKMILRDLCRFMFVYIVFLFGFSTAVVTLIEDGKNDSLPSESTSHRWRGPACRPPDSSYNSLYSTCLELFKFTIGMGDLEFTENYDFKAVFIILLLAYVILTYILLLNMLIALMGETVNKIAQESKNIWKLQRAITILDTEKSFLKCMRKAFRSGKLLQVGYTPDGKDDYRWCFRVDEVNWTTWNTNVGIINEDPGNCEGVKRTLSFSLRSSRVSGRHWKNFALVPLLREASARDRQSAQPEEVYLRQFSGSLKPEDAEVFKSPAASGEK
quantityMeasured: pKi
pKi is defined as minus the log10 of a concentration measured in mol/L.

State its pKi: CC1CCN(c2nc(C(F)(F)F)ccc2CNC(=O)Nc2cccc3cnccc23)CC1 10.70

----------
molecular target: Transient receptor potential cation channel subfamily V member 1 (Homo sapiens, UniProt Q8NER1); assay: Antagonist activity at human TRPV1 assessed as inhibition of capsaicin-induced effect by FLIPR assay
quantityMeasured: Ki

Here is how some molecules turned out for Ki.
1) CC1CCN(c2nc(C(F)(F)F)ccc2CNC(=O)Nc2ccc3ccccc3n2)CC1; Not Active
2) CC1CCN(c2nc(C(F)(F)F)ccc2CNC(=O)Nc2ccnc3ccccc23)CC1; Agonist
3) CC1CCN(c2nc(C(F)(F)F)ccc2CNC(=O)Nc2nccc3ccccc23)CC1; Not Active
4) CC1CCN(c2nc(C(F)(F)F)ccc2CNC(=O)Nc2nccc3cccnc23)CC1; Not Active

Shift focus to the following entry.
For CC1CCN(c2nc(C(F)(F)F)ccc2CNC(=O)Nc2ccc3ncncc3c2)CC1 , write its Ki. Agonist

----------
target: Transient receptor potential cation channel subfamily V member 1 (Homo sapiens); experiment: Antagonist activity at human TRPV1 assessed as inhibition of 45 degC heat-induced effect at 1 uM by FLIPR assay
quantityMeasured: IC50 (nM)
Answer format: numeric, nM implied, no suffix.

Specify the recorded IC50 for CC1CCN(c2nc(C(F)(F)F)ccc2CNC(=O)Nc2cccc3cnccc23)CC1 , system: Transient receptor potential cation channel subfamily V member 1 (Homo sapiens). 0.55

----------
Recorded pKi, one value per entry.
molecular target: UniProt:Q8NER1; experiment: Antagonist activity at human TRPV1 assessed as inhibition of capsaicin-induced effect by FLIPR assay; conditions: read-out: Ki
The read-out pKi is expressed as -log10 of concentration in moles per litre.

1. CC1CCN(c2nc(C(F)(F)F)ccc2CNC(=O)Nc2ccc3cnncc3c2)CC1; 8.05

Please indicate pKi recorded for CC(C)(C)c1ccc(CNC(=O)Nc2cccc3cnccc23)cc1 7.86

Supply pKi value. Item: CC1CCN(c2nc(C(F)(F)F)ccc2CNC(=O)Nc2cccc3cccnc23)CC1 7.04

----------
target: Transient receptor potential cation channel subfamily V member 1 (Homo sapiens, UniProt Q8NER1); assay: Antagonist activity at human TRPV1 assessed as inhibition of capsaicin-induced effect by FLIPR assay; conditions: read-out: Ki
// reported pKi for each item listed
Just so you know, pKi here is -log10 of the concentration in molar units; reply with that number alone.

1. CC1CCN(c2nc(C(F)(F)F)ccc2CNC(=O)Nc2cncc3ccccc23)CC1; 8.74
2. CC1CCN(c2nc(C(F)(F)F)ccc2CNC(=O)Nc2ccc3cccnc3c2)CC1; 8.15
3. CC1CCN(c2nc(C(F)(F)F)ccc2CNC(=O)Nc2ccc3cncnc3c2)CC1; 8.11
4. CC1CCN(c2nc(C(F)(F)F)ccc2CNC(=O)Nc2ccc3ccncc3c2)CC1; 8.08
5. CC1CCN(c2nc(C(F)(F)F)ccc2CNC(=O)Nc2cccc3nccnc23)CC1; 7.32

Please report the measured pKi for CC1CCN(c2nc(C(F)(F)F)ccc2CNC(=O)Nc2ccc3cnccc3c2)CC1 8.14

Item CC1CCN(c2nc(C(F)(F)F)ccc2CNC(=O)Nc2cnc3ccccc3c2)CC1 : provide pKi 8.02
